B1: glmS ribozyme (parent)
chain: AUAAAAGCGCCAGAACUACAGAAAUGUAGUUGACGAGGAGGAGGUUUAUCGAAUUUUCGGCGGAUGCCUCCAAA

Variants of: B1
Test: self-cleavage kobs at 40 uM GlcN6P; higher = faster cleavage; RNA array
Conditions: with glucosamine-6-phosphate
This sample holds only a part of the variants without activity.
Below is a list of entries, each paired with its recorded self-cleavage kobs at 40 uM GlcN6P value.

sequence-code | bound-type | self-cleavage kobs at 40 uM GlcN6P / s⁻¹
AUAAAAGCGCCAGAACUACAGAAAUGUAGUUGACGAGGAGUAUGUUUAUCGAAUUUUCGGCGGAUGCCUCCAAA [G41U G43U] | < | 1e-05
AUAAAAGCGCCAGUACUACAGAAAUGUAGUUGACGAGGACGAGGUUUAUCGAAUUUUCGGCGGAUGCCUCCAAA [A14U G40C] | = | 2.05e-05
AUAAAAGCGCCAGAACUACAGAAAUGUAGUUGACGAGGAGGAGGUGUAUCGAAUUUACGGCGGAUGCCUCCAAA [U46G U57A] | < | 1e-05
AUAAAAGCGCCAGAACUACAGAAAUGUAGUUGUCGAGGAGGCGGUUGAUCGAAAUUUCGGCGGAUGCCUCCAAA [A33U A42C U47G U54A] | < | 1e-05
AUAAAAGCGCCAGAACUACAGAAAUGUAGUUGACGAAGAGGAGGUUUAUCGAAUUUUCGGCGGAUACCUCCAAA [G37A G66A] | = | 1.72e-05
AUAAAAGCGCCAGAACUACAGAAAUGUAGUUGGUGAGGAGGAGGUUUAUCGAAUUUUCGGCGGAUGCUUCCAAA [A33G C34U C68U] | < | 1e-05
AUAAAAGCGCCAGAGCUACAGAAAUGUAGUGGACGAGGUGGAGGUUUAUCGAAUUUUCGGCGGAUGCCUCCAAA [A15G U31G A39U] | = | 3.3e-05
AUAAAUGCGCCAGAACUACAGAAAUGUAGUUGACGAGGAGGAGGUUUAUCGAAUUUGCGGCGGAUGCCUCCAAA [A6U U57G] | < | 1e-05
AUAAAAGCGCCAGAACUACAGAAAUGUAGUGGACGAGGAGGGGGUUUAUCGAAUUUUCGGCGGAUGCCUCCAAA [U31G A42G] | = | 0.00033
AUAAAAGCGCCAGAACUACAGAAAUGUAGGUGACGGGGAGGAGGUUUAUCGAAUUUUCGGCGGAUGCCUCCAAA [U30G A36G] | < | 1e-05
AUAAAAACGCCAGAACUACAGAAAUGUAGUUGACGAGGAGGAGGUUUAUCGAAUUUUAGGCGGAUGGCUCCAAA [G7A C58A C67G] | = | 5.23e-05
AUAAAAGCGCCAGAUCUACAGAAAUGUAGUUGCCGAGGAGGAGGUUUAUCGAAUUUUCGGCGGAUGCCUCCAAA [A15U A33C] | < | 1e-05
AUAAAAGCGCCAGCCCUACAGAAAUGUAGUUGACGAGGAGGAGGUUUAUGGAAUUUUCGCCGGAUGUCUCCAAA [A14C A15C C50G G60C C67U] | = | 6.66e-05
AUAAAAGCGCCAGAACUACAGAAAUGUAGUUGACGAGGAGGGGGUUUAUCGAAAUUUCGGCGGAUGCCUCCAAA [A42G U54A] | = | 0.000967
AUAAAAGCGCCAGACCUACAGAAAUGUAGUUGACGAGGAGGAGGUUUAUCGAAUUGUCGGCGGAUGCCUCCAAA [A15C U56G] | = | 6.11e-05
AUAAAAGCGCCACAACUACAGAAAUGUAGUUGACGAGGAGGAGGUUUUUCGAAUUUUCGGCGGAUGCCUGCAAA [G13C A48U C70G] | < | 1e-05
AUAAAAGCGCCAGAACUACAGAAAUGUAGUUGACGAGGGGGAGGUUGAUCGAAUUUUCGGCGGAUGCCUCCAAA [A39G U47G] | = | 0.000644
AUAAAAGCGCCUGAACUACAGAAAUGUAGUUGACGAGGAGGAGCUUUAUCGAAUUUUCGGCGGAAGCCUCCAAA [A12U G44C U65A] | < | 1e-05
AUAAAAGCGCCACAACUACAGAAAUGUAGUUGACGAGGAGGAGGGUUAUCGAAUUUUCGGCGGAUGCCUCCAAA [G13C U45G] | < | 1e-05
AUAAAAGCGCCAGAACUACAGAAAUGUAGUUAUCGAGGAGGAGGUUUAUCGAAUUUUCGGCGGAUGCGUCGAAA [G32A A33U C68G C71G] | = | 0.000162
AUAAAAGCGCCAUAACUACAGAAAUGUAGUUGACGAGGAGGAGGUUUAUCGAGUUUUCGGCGGAUGCCUCCAAA [G13U A53G] | = | 2.14e-05
AUAAAAGCGCCAGAACUACAGAAAUGUAGUUGACGAGGAGGAGGUUUAUCGAAUUUUCGGCGGAUUCUUCCAAA [G66U C68U] | = | 2.21e-05
AUAAAAGCGCCAGAACUACAGAAAUGUAGUUGCCGAGCAGGAGGUUUAUCGAAUUUUCGGCGGAUGCCUCCAAA [A33C G38C] | < | 1e-05
AUAAAAGCGCCAGAAUUACAGAAAUGUAGUUGACGAUGAGGAGGUUUAUCCAAUUUUCGGCGGAUGCCUCCAAA [C16U G37U G51C] | < | 1e-05
AUAAAAGCGCCAGAACUACAGAAAUGUAGUUGCCGAGAAGGAGGUUUAUCGAAUUUUCGGCGGAUGCCUCCAAA [A33C G38A] | < | 1e-05
AUAAAAGCGCGAGAACUACAGAAAUGUAGUUGACGAGGAGGAGGUUUAUCGAAUUUUCGGCGGAUGCCGCCAAA [C11G U69G] | = | 3.62e-05
AUAAAAGCGCCAGAACUACAGAAAUGUAGAUGACAAGGAGGAGGUUUAUCAAAUUUUCGUCGGAUGCCUCCAAA [U30A G35A G51A G60U] | < | 1e-05
AUAAAAGCGCCAGAACUACAGAAAUGUAGUUGACGAGGAGGAGGUUUAUCGACUUUUCGGCGGAUACCUCCAAA [A53C G66A] | = | 0.000154
AUAAAAGCGCCACAACUACAGAAAUGUAGUGGACGAGGAGGAGGUUUUUCGAAUUUUCGGCGGAUGCCUCCAAA [G13C U31G A48U] | < | 1e-05
AUAAAAGCGCCAGAACUACAGAAAUGUAGUUGACGAGGAGGAGGUUUAUCGAAUUCUCGUCGGAUGCCUCCAAA [U56C G60U] | < | 1e-05
AUAAAAGCGCCAGAACUACAGAAAUGUAGAUGACGAGGAGGAGGUUUAUCUAAAUUUCGGCGGAUGCCUCCAAA [U30A G51U U54A] | < | 1e-05
AUAAAAGCGCCAGAACUACAGAAAUGUACUUGACGAGGAGGAGGUUUAUCGAAUUUUUGGCGGAUGCCUCCAAA [G29C C58U] | < | 1e-05
AUAAAAGCGCCAGAACUACAGAAAUGUAGUUGACGAGGAGGAGGUUUAUGGACUUUUCGGCGGAUGGCUCCAAA [C50G A53C C67G] | = | 7.76e-05
AUAAAAGCGCCAGAACUACAGAAAUGUAGUUGAGGAGGAGGAGGUUUAUCGAUUUUUCGGCGUGUGCCUCCAAA [C34G A53U G63U A64G] | < | 1e-05
AUAAAAGCGCCAGAACUACAGAAAUGUAGUUGACGAGGAGGAGGUGUAUCGAAUUUUCGGCGGAUACCUGCAAA [U46G G66A C70G] | = | 6.36e-05
AUAAAAGCGCCAGAACUACAGAAAUGUAGUUGACGAGGAGGAGGUCUAUCGAAUCUUCGGCGGAUGCCUCCAAA [U46C U55C] | = | 0.000129
AUAAAAGCGCCAGAACUACAGAAAUGUAGUUGACUAGGAGGGGGUUUAUCGAAUUUUCGGCGGAUGCCUCCAAA [G35U A42G] | < | 1e-05
AUAAAAGCGCCAGAACUACAGAAAUGUAGUUGACGAGGAGGGGGUUUAUCAUAUUUUCGGCGGAUGCCUCCAAA [A42G G51A A52U] | < | 1e-05
AUAAAAGCGCCAGAACUACAGAAAUGUAGUUGACGAGGAGGAAGUUUAUCGAAUUUUCGGCCGACGCGUCCAAA [G43A G62C U65C C68G] | < | 1e-05
AUAAAAGCGCCAGUGCUACAGAAAUGUAGUUGACGAGGAGGACGUUUAUCGAAUUUUCGGCGGAUGCCUCCAAA [A14U A15G G43C] | < | 1e-05
AUAAAAGCGCGAGCACUACAGAAAUGUAGUUGACGAGGAGGAGGUUUAUCGAAUUUUCGGCGGAUGCCUCCAAA [C11G A14C] | < | 1e-05
AUAAAAGCGCCAAAAUUACAGAAAUGUAGUUGACGAUGAGGAGGUUUAUCGAAUUUUCGGCGGAUGUCUCCAAA [G13A C16U G37U C67U] | < | 1e-05
AUAAAAGCGCCAGAACUGCAGAAAUGUAGUUGACGAGGAGGAGGUUUAUCGAAUUUUCGGCGGAUGCCUACAAA [A18G C70A] | = | 4.53e-05
AUAAAAGGGCCAGAACUACAGAAAUGUAGUUGACGAGGAGGAGGUUUAUGGAAUUUUCGGCGGAUGCCUCCAAA [C8G C50G] | = | 0.000322
AUAAAAUCCCCAGAACUACAGAAAUGUAGUUGACCUGGAGGAGGUUUAACGAAUUAUCGGCGGAUGCCUCCAAA [G7U G9C G35C A36U U49A U56A] | < | 1e-05
AUAAAAGCGCCAGAACUACAGAAAUGUAGUUGACGAGGCGGAGGUUAAUCGAAUUUUCGGCGGAUGCCUCCAAA [A39C U47A] | = | 8.72e-05
